B1: HDV Ribozyme (parent)
chain: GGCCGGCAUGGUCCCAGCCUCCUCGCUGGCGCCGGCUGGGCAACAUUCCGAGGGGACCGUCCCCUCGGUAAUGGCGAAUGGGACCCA

Variants of: B1
Assay: self-cleavage, relative activity (ratio to wild type); higher = more cleavage; co-transcriptional
Record form. Attribute: self-cleavage. Fill in for each entry.
Number only, no unit.

Would you kindly share the measured self-cleavage for A42C C49A ?
0.262

Given G11A U46G , state its recorded self-cleavage.
0.128

Consider the variant shown here: C41G G59A What is its recorded self-cleavage?
0.758

Suppose we examine the variant G40A G67U ; what self-cleavage value has been reported?
0.919

Entry G10A C66A has what self-cleavage?
0.82

If you can, please state the reported self-cleavage value of A8G G11A .
0.196

What value of measured self-cleavage is listed for C58U C85U ?
0.945

Endpoint output: self-cleavage of U9A A78G . Value?
1.04

Entry under review: C7A A83C . Reported self-cleavage?
0.0923

Need self-cleavage of C14A A83U , thanks.
0.499

Suppose we examine the variant C32A G80A ; what self-cleavage value has been reported?
0.183

Sample A71G C85U — what was its self-cleavage?
0.962

Would you kindly share the measured self-cleavage for C57G C58A ?
1.26

Using the record for C24U U47A , report its self-cleavage.
0.658

# self-cleavage lookup, item C57G G73A
0.658

Dear colleague, I am looking for the recorded self-cleavage of the following variant: G5A C75A
0.113

Record request: self-cleavage value, item C57G G80A
0.208

What value of measured self-cleavage is listed for G6A A77G ?
0.277

Entry under review: G1A C75U . Reported self-cleavage?
0.0639

Fill blank: measured self-cleavage of the variant C33A G54C is ____.
0.222

// self-cleavage lookup, key: G2A G68U
0.0645

If you can, please state the reported self-cleavage value of G31U C48A .
0.401

// provenance: the RNAGym collection of RNA variant scans (doi:10.7554/elife.80360)
